# assayed_target: human D2 receptor (Homo sapiens)
# protocol_text: Dopamine assay: functional cAMP read-out (HitHunter cAMP XS+, Gi/o agonist format)
measurement_kind: IC50
// return the numeric value with its unit appended

Value of measured IC50 for the entry CC(=O)O[C@@H]1C[C@@H](C)[C@](O)(CCC2=CC(=O)OC2O)[C@@]2(C)CCCC(C)(C)[C@H]12 (stereo partly shown) : 6.6 µM

* * *

# assayed_target: human D2 receptor (Homo sapiens, UniProt P14416)
# Construct: host or cells: CHO-K1
# Sequence (P14416 whole entry): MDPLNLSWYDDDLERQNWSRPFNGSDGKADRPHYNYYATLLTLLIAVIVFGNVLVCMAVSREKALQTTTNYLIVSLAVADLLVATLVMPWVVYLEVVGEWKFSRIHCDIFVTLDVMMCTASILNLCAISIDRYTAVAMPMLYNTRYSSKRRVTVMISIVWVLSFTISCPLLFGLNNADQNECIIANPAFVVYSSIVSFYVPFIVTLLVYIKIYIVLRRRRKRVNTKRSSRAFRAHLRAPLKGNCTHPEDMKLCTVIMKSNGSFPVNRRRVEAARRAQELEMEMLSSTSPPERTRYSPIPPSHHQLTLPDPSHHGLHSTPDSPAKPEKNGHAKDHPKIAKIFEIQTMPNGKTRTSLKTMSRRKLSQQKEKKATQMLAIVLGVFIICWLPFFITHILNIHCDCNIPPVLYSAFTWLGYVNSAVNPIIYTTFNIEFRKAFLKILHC
# protocol_text: Dopamine assay: functional cAMP read-out (HitHunter cAMP XS+, Gi/o agonist format)
# Type: cell-based
# assay_context: CHO-K1 cells overexpressing the human D2 receptor, cAMP read-out, 25 µM forskolin, n = 2 independent experiments; read-out: EC50 at the D2 receptor
measurement_kind: EC50

Check out these entries, answers already filled in.
{"columns": ["molecule", "reported_result"],
 "data": [
  ["C=CC(C)(O)CC[C@@H]1[C@@]2(C)CCCC(C)(C)[C@@H]2CC[C@]1(C)O (stereo partly drawn) [compound 4, 8-epi-Sclareol]", "24.3 µM"],
  ["C[C@@H]1CC[C@]2(C(=O)O)CC[C@]3(C)C(=CC[C@@H]4[C@@]5(C)C[C@@H](O)[C@@H](O)C(C)(C)[C@@H]5CC[C@]43C)[C@@H]2[C@]1(C)O", "> 50 µM"],
  ["C=CC(C)(O)CC[C@H]1[C@@]2(C)CCCC(C)(C)[C@@H]2CC[C@@]1(C)O (some centres unmarked)", "> 50 µM"],
  ["CC(=O)O[C@@H]1C[C@@H](C)[C@](O)(CCc2ccoc2)[C@@]2(C)CCCC(C)(C)[C@H]12", "12.8 µM"]
]}

Proceed to the following item.
Reported EC50 of CC1(C)CC[C@]2(C(=O)O)CC[C@]3(C)C(=CC[C@@H]4[C@@]5(C)C[C@@H](O)[C@H](O)[C@@](C)(CO)[C@@H]5CC[C@]43C)[C@@H]2C1 [arjunolic acid, reference compound] : ≥ 50 µM

Recorded values, source paper PMC11547015.
